Reference for the values: the OPERA property sets (Mansouri et al. 2018)

logP overview
Just the number, please, no unit attached.

[[record]]
compound = "COc1ccc(C2Cc3cc(C(F)(F)F)ccc3N(CCN(C)C)C(=O)C2CC(C)=O)cc1 (stereo unspecified)"
measured = 4.7

[[record]]
compound = "O=C(O)CCCCCON=C(c1ccnnc1)c1cccc(C(F)(F)F)c1"
measured = 3.38

[[record]]
compound = "O=c1cc(CBr)occ1O"
measured = 0.61

[[record]]
compound = "ON=Cc1nc(-c2cccs2)no1"
measured = 2.47

[[record]]
compound = "O=S(CCl)c1ccccc1 (stereo unspecified)"
measured = 1.47


Would you kindly share the measured logP for CNC(=O)c1cn2c(C)c(C)nc2c2c1CCC(c1ccccc1)O2 (stereo unspecified) ?
3.6

Would you kindly share the measured logP for C=C1CC2c3c(O)cc(CCCCC)cc3OC(C)(C)C2CC1O (stereo unspecified) ?
5.24

Would you kindly share the measured logP for `CCCCCC(=O)c1ccncc1` ?
2.9

Would you kindly share the measured logP for ClCC1(CCl)C2CC(Cl)(Cl)C1(CCl)C(Cl)C2Cl (stereo unspecified) ?
5.23

Would you kindly share the measured logP for `O=C1c2ccccc2-c2nnc(-c3ccccc3[N+](=O)[O-])cc21` ?
2.64

Would you kindly share the measured logP for `CN(C)CCOC(=O)c1ccc(S(C)(=O)=O)cc1` ?
0.45

Would you kindly share the measured logP for `O=c1cc(-c2cccc(Cl)c2)oc2ccc(Cl)cc12` ?
4.38

Would you kindly share the measured logP for NC(Cc1c[nH]c2ccccc12)C(=O)NC(Cc1ccc(O)cc1)C(=O)O (stereo unspecified) ?
-1.13
